tgt: γ-secretase (Homo sapiens, UniProt P49768)
Construct: uses a HEK293 membrane fraction as a source of γ-secretase; endogenous in cells; host or cells: HEK293 (microsomal membrane fraction, solubilised in 0.25% CHAPSO)
procedureDetails: in vitro γ-secretase assay (HEK293 membrane fraction, recombinant APP substrate, Abeta ELISA)
Format: biochemical
conditionInfo: γ-secretase inhibition, table head prints none
propertyLabel: IC50 (nM)
Use nM as the unit, but write only the number.

Below: 3 compounds and their reported IC50.
1. COc1ccc(CN(C2CC(C(C)C)CCNC2=O)S(=O)(=O)c2ccc(Cl)cc2)cc1 (stereo not shown) : 8
2. CCOC(=O)CC(=O)Nc1ccc(CN(C2CCCCNC2=O)S(=O)(=O)c2ccc(Cl)cc2)cc1 (racemic) : 270
3. CC1(C)CCNC(=O)[C@H](N(Cc2ccc(-c3ccno3)cc2)S(=O)(=O)c2ccc(Cl)cc2)C1 : 60

# evaluate next
Ask: Reported IC50 for γ-secretase (Homo sapiens, UniProt P49768), given CC1(C)CCNC(=O)C(N(Cc2ccc(C(=O)NCCF)cc2)S(=O)(=O)c2ccc(Cl)cc2)C1 (racemic) ?
Result: 20
